Test: Cmax in male db/db mice administered at 3 mg/kg, po
Assay type: ADME, organism-based
Parameters: dose 3 mg/kg, route oral
Conditions: mouse, in vivo
Result Type: Cmax (ng/mL)

>>> df
                    structure_smiles_string  result_type  meas_value
0  CC[C@H](C(=O)O)[C@@H]1CCc2cc(OCCc3nc(-c4ccc(C)cc4)oc3C)ccc21         Cmax        2980

====

Test: Cmax in male hApoA1 transgenic mice administered at 3 mg/kg, po
Assay type: ADME, organism-based
Design: dose 3 mg/kg, route oral
Conditions: mouse, in vivo
Result Type: Cmax

In [3]: df
Out[3]:
                    structure_smiles_string  result_type  meas_value
0  CC[C@H](C(=O)O)[C@@H]1CCc2cc(OCCc3nc(-c4ccc(C)cc4)oc3C)ccc21         Cmax  2550 ng/mL

====

Molecular target: Peroxisome proliferator-activated receptor alpha (Homo sapiens)
Sequence (Q07869 whole entry): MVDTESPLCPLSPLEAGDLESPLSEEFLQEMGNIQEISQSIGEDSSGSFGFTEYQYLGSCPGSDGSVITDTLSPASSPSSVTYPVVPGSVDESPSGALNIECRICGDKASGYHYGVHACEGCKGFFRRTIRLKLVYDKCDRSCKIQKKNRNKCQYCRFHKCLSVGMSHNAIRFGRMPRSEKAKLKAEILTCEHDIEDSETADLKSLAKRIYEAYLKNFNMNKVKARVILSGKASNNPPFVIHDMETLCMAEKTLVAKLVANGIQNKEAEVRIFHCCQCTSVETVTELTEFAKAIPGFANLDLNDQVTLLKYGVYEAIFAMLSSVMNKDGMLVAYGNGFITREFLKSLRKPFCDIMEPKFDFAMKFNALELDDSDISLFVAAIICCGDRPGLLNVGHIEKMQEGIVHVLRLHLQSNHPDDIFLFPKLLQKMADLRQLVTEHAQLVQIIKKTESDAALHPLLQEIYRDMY
Test: Activity against PPAR alpha in human by FRET assay
Result Type: EC50

>>> df
                                    molecule  result_type  meas_value
 0  CCC(C(=O)O)C1CCc2cc(OCCc3nc(-c4ccccc4F)oc3C)ccc21 (stereo not given)         EC50      559 nM
 1  CCC(C(=O)O)C1CCc2cc(OCCn3nc(-c4ccccc4)cc3C)ccc21 (stereo not given)         EC50      232 nM
 2  CCC(C(=O)O)C1CCc2cc(OCc3cc(-c4ccccc4)on3)ccc21 (stereo not given)         EC50      670 nM
 3  CCC(C(=O)O)C1CCc2cc(OCCc3c(-c4ccccc4)noc3C)ccc21 (stereo not given)         EC50  > 10000 nM
 4  CCc1oc(-c2ccccc2)nc1CCOc1ccc2c(c1)CCC2C(CC)C(=O)O (stereo not given)         EC50      354 nM
 5  Cc1oc(-c2ccccc2)nc1CCOc1ccc2c(c1)CCC2C(C(=O)O)c1ccccc1 (stereo not given)         EC50     7260 nM
 6  CCC(C(=O)O)C1CCc2cc(OCCc3nc(-c4ccccc4)oc3C)c(-c3ccc(Cl)cc3)cc21 (stereo not given)         EC50       45 nM
 7  CCC(C(=O)O)C1CCc2cc(OCCc3coc(-c4ccccc4)n3)ccc21 (stereo not given)         EC50      383 nM
 8  CCC(C(=O)O)C1CCc2cc(OCCc3nc(-c4ccc(C)c(F)c4)oc3C)ccc21 (stereo not given)         EC50       46 nM
 9  CCOC(C(=O)O)C1CCc2cc(OCCc3nc(-c4ccccc4)oc3C)ccc21 (stereo not given)         EC50      500 nM
10  CCC(C(=O)O)C1CCc2cc(OCCc3nc(C4CCCC4)oc3C)ccc21 (stereo not given)         EC50      202 nM
11  CCC(C(=O)O)C1CCc2cc(OCCc3nc(-c4ccc(OC)cc4)oc3C)ccc21 (stereo not given)         EC50      199 nM
12  CCC(C(=O)O)C1CCc2cc(OCCc3nc(-c4ccccc4)oc3C)c(C(C)=O)cc21 (stereo not given)         EC50      327 nM
13  CCc1ccc(-c2nc(CCOc3ccc4c(c3)CCC4C(CC)C(=O)O)c(C)o2)cc1 (stereo not given)         EC50      109 nM
14  CCC(C(=O)O)C1CCc2cc(OCCc3nc(-c4ccc(C(F)(F)F)cc4)oc3C)ccc21 (stereo not given)         EC50       58 nM
15  CCC(C(=O)O)C1CCc2cc(OCCc3nc(-c4ccc(Cl)c(Cl)c4)oc3C)ccc21 (stereo in doubt)         EC50       29 nM
16  CCC(C(=O)O)C1CCc2cc(OCCc3nc(-c4ccc(Cl)cc4)oc3C)ccc21 (stereo not given)         EC50       92 nM
17  CCC(C(=O)O)C1CCc2cc(OCCc3nc(-c4ccccc4)oc3C)c(-c3ccc(OC)cc3)cc21 (stereo not given)         EC50       23 nM
18  COC(C(=O)O)C1CCc2cc(OCCc3nc(-c4ccccc4)oc3C)ccc21 (stereo not given)         EC50      670 nM
19  CCC(C(=O)O)C1CCc2cc(OCCc3nc(-c4ccccc4)oc3C)c(-c3ccccc3)cc21 (stereo not given)         EC50       58 nM
